The following compounds are shown together with reported logP values.
PROPERTY_NAME: logP

1) O=C1CSC(c2ccccc2)N1c1ccc(Br)cc1 (stereo not drawn)    2.56
2) O=C1CSC(c2cccc([N+](=O)[O-])c2)N1c1ccccc1 (stereo not drawn)    1.73
3) O=C1CSC(c2ccccc2)N1c1ccccc1 (stereo not drawn)    1.88
4) O=C1CSC(c2ccc(Br)cc2)N1c1ccccc1 (stereo not drawn)    2.66
5) O=C1CS(=O)(=O)C(c2cccc(Br)c2)N1c1ccccc1 (stereo not drawn)    1.63
6) O=C1CSC(c2ccc([N+](=O)[O-])cc2)N1c1ccccc1 (stereo not drawn)    1.75
7) Cc1ccc(N2C(=O)CSC2c2ccccc2)cc1 (stereo not drawn)    2.32
8) O=C1CSC(c2ccccc2)N1c1cccc(Br)c1 (stereo not drawn)    2.58

---

The following molecules are shown together with reported logP values.
PROPERTY_NAME: logP

1. O=C1CSC(c2cccc(Br)c2)N1c1ccccc1 (stereo not drawn)    2.44
2. O=C1CS(=O)C(c2ccccc2)N1c1ccccc1 (stereo not drawn)    1.07
3. Cc1cccc(C2SCC(=O)N2c2ccccc2)c1 (stereo not drawn)    2.3
4. COc1ccc(C2SCC(=O)N2c2ccccc2)cc1 (stereo not drawn)    1.97
5. COc1ccc(N2C(=O)CSC2c2ccccc2)cc1 (stereo not drawn)    1.92
6. O=C1CSC(c2ccccc2)N1c1ccc(Cl)cc1 (stereo not drawn)    2.42
7. COc1ccc(N2C(=O)CS(=O)(=O)C2c2ccccc2)cc1 (stereo not drawn)    1.09
8. O=C1CSC(c2ccccc2)N1c1ccc(O)cc1 (stereo not drawn)    1.29
9. O=C1CS(=O)C(c2ccccc2)N1c1cccc([N+](=O)[O-])c1 (stereo not drawn)    1.09
10. O=C1CSC(c2ccc(Cl)cc2)N1c1ccccc1 (stereo not drawn)    2.52
11. COc1ccc(N2C(=O)CS(=O)C2c2ccccc2)cc1 (stereo not drawn)    1.07
12. O=C1CSC(c2cccc(F)c2)N1c1ccccc1 (stereo not drawn)    1.9
13. O=C1CS(=O)C(c2cccc(Br)c2)N1c1ccccc1 (stereo not drawn)    1.63

---

- PROTOCOL_NOTES: method code SF-AS, from Woolston, C.; Lee, J.; Swinbourne, F. (1994). Partition coefficients and chromatographic parameters of some substituted 1,3-thiazolidin-4-ones. Ind. J. Chem., Sect. B, 33(6)590-592.
- STUDY_CONDITIONS: pH 7.4
PROPERTY_NAME: logD

1) O=C1CS(=O)(=O)C(c2ccccc2)N1c1ccccc1 (stereo unspecified)    1.23

---

PROPERTY_NAME: logP

1. O=C1CS(=O)(=O)C(c2ccccc2)N1c1cccc([N+](=O)[O-])c1 (stereo unspecified)    1.09
2. N#Cc1ccc(C2SCC(=O)N2c2ccccc2)cc1 (stereo unspecified)    1.32
3. COc1cccc(C2SCC(=O)N2c2ccccc2)c1 (stereo unspecified)    1.96
4. O=C1CSC(c2ccccc2)N1c1cccc([N+](=O)[O-])c1 (stereo unspecified)    1.9
5. Cc1ccc(C2SCC(=O)N2c2ccccc2)cc1 (stereo unspecified)    2.48
6. O=C1CSC(c2cccc(Cl)c2)N1c1ccccc1 (stereo unspecified)    2.32

Where these numbers come from: the SangsterLogP compilation
